Tested on: MDA-MB-468 breast
assay_overview: NCI-60 one-dose screen, 48 h (100 = growth as untreated, 0 = no growth, -100 = all killed)
condition_details: 10 µM unless noted
Compounds without any hit were thinned out: in the full panel of roughly 83,000, 20% have a hit. Activity calls are given as the source filed them. How the source made its calls: active means growth percent below 10; inactive means the rest.
quantity_name: growth

O=C(Nc1ccc(F)cc1)Nc1ccc(NC(=O)c2cc(Cl)nc3ccccc23)cc1
38.7% (inactive)

// assay MDA-MB-468 breast, entry CCOC(=O)/C=C(/C)Sc1cc(O)c2ccccc2c1O , growth value = 29.9% (inactive)

Log: MDA-MB-468 breast, compound COc1cc(-c2nn(-c3cccc(NC(=O)NCCNC(=O)c4ccccc4)c3)cc2-c2ccncc2)ccc1Cl , growth = 12.1% (inactive)

MDA-MB-468 breast growth of CCOP(=O)(OCC)c1nc(-c2ccccc2)oc1NCc1cccnc1 is 114% (inactive)

Summary: Cc1cc(Br)c2nsnc2c1[N+](=O)[O-] , MDA-MB-468 breast, growth = -24.6% (active)

Observed growth on MDA-MB-468 breast, entry Brc1cccc(/C=N/Nc2nc(N/N=C/c3cccc(Br)c3)nc(N3CCOCC3)n2)c1 , equals 1.09% (active)

Considering C/C=C/C/C=C/[C@H](C)C[C@H](O)[C@@H]1C[C@@H]2O[C@H]2/C=C/[C@H](O)[C@@H](O)/C=C/C[C@H](C)CC(=O)O1 , its growth with MDA-MB-468 breast was recorded as 99.5% (inactive)

Considering Cc1ccc(S(=O)(=O)N(CC[C@@H]2C[C@H]2c2cc3ccccc3o2)C(=O)NC2CCCCC2)cc1 , its growth with MDA-MB-468 breast was recorded as 95.3% (inactive)

---

Tested on: MDA-MB-468 breast
assay_overview: NCI-60 one-dose screen, 48 h (100 = growth as untreated, 0 = no growth, -100 = all killed)
condition_details: 10 µM unless noted
This is part of a sample that, as a whole, favours compounds with a hit. Of some 83,000 tested, about 20% had one in any assay.
quantity_name: growth (%)
Write the value in % as a bare number.

Here is how some compounds turned out for growth.
COc1cc(C(=O)Nc2cc(O)c(C/C=C(\C)CCC=C(C)C)c(O)c2)cc2c1O[C@]1(C)CC[C@@H](O)C(C)(C)[C@H]1C2
3.89
COc1cc2c(c(OC)c1OC)C(=O)N[C@@H]1[C@@H](O)[C@@H](O)[C@H](O)C[C@@H]21
102
COc1cc2cc(COc3nccc(-c4ccc(Cl)cc4)n3)c(=O)[nH]c2cc1OC
80.1
COc1ccc(-c2cn(Cc3ccc4c(Br)cc(Br)c(O)c4n3)nn2)cc1
72.2
CC(=O)Oc1ccc(/C=N/NC(N)=S)nc1
-13.9

Lab note: measured growth of C=C(C)[C@@H]1CC[C@]2(COC(=O)c3cccnc3)CC[C@]3(C)[C@H](CC[C@@H]4[C@@]5(C)CCCN(C(=O)c6cccnc6)C(C)(C)[C@@H]5CC[C@]43C)[C@@H]12 was 23.3

growth reading for CC1(C)CC[C@]2(C(=O)N3CCCN(CC#N)CC3)CC[C@]3(C)C(=CC[C@@H]4[C@@]5(C)CC[C@H](O)C(C)(C)[C@@H]5CC[C@]43C)[C@H]2C1 : 41.2

growth for Cc1oc2c(C(=O)N/N=C\c3ccc(O)cc3O)c[nH]c2c1C is -11.8

For CCNC(=O)N1CCc2cc(OC)c(OCCc3ccc(OC)cc3)cc2C1c1ccc(Cl)cc1C (configuration not stated) the compound record lists growth as -1.44

Recorded result, O=S1(=O)N(Cc2ccccc2)[C@@H](Cc2ccccc2)C2O[C@H]2[C@H](Cc2ccccc2)N1Cc1ccccc1 (some centres not stated) , growth: 6.52

Entry O=C(O)c1ccc2c(c1Sc1ccccc1)C(=O)c1ccccc1C2=O ; growth = 97.9

# growth (compound: COc1ccc(-c2[nH]ncc2/C=C/c2cc(C(F)(F)F)[nH]c(=O)n2)cc1 ) is 96.1

// field: growth; key: COc1ccc(-n2c(C)nc3c(c(C)nn3-c3ccccc3)c2=O)cc1 ; value = -15.7

---

Examples of molecules with documented growth follow.
Tested on: MDA-MB-468 breast
assay_overview: NCI-60 one-dose screen, 48 h (100 = growth as untreated, 0 = no growth, -100 = all killed)
condition_details: 10 µM unless noted
Compounds without any hit were thinned out: in the full panel of roughly 83,000, 20% have a hit.
# number only, unit % dropped from output

Example entries and their recorded answers appear below.
COc1cccc(C2C(C#N)=C(N)Oc3cc(OC)ccc32)c1 (stereo not given)
41.4
Cc1ccc(S(=O)(=O)Nc2c(Br)cc(Br)cc2C(N)=O)cc1
102
O=C1C(Cl)C(c2ccccc2Cl)N1n1cnnc1 (stereo not given)
106
Cc1ccc(NC(=O)CSc2nnc3n(Cc4ccccc4)c(=O)c4c(C)c(C(N)=O)sc4n23)cc1
107

Read the next record carefully.
Reported growth for Clc1ccc(/C=N/Nc2nc3ccccc3s2)c(Cl)c1 was 89.3

---

Tested on: MDA-MB-468 breast
assay_overview: NCI-60 one-dose screen, 48 h (100 = growth as untreated, 0 = no growth, -100 = all killed)
condition_details: 10 µM unless noted
Experimental: Growth inhibition of the MDA-MB-468 human Breast tumor cell line is measured as a screen for anti-cancer activity. Cells are grown in 96 well plates and exposed to the test compound for 48 hours. Compounds are tested at a single concentration, which is 10^-5 M for most compounds. The reported endpoint is percent growth (GI% or GIPRCNT), where numbers from 0 - 100% represent growth inhibition, and numbers from -100% - 0 represent cell death. […]
This is part of a sample that, as a whole, favours compounds with a hit. Of some 83,000 tested, about 20% had one in any assay. Active and inactive are the calls of the source. Rule for the calls: active = growth percent below 10; inactive = the rest.
quantity_name: growth

Example cases with answers are listed next.
O=C1CCC(C(=O)NN(c2ccccc2)c2ccccc2)N1 (stereo unspecified)
94.5% (inactive)
O=C1/C(=C/c2ccc([N+](=O)[O-])s2)Oc2ccccc21
-34.1% (active)
NC(=O)C12C(=O)NC(=O)C1(C(=O)O)C21CCCC1 (stereo unspecified)
112% (inactive)
NC(=O)c1cnc(Nc2cccc(N)c2)nc1NCCCNC(=O)C1CCC1
52.9% (inactive)
COc1cc(NC(=O)Nc2cnc(Nc3ccc(N4CCOCC4)cc3)nc2Oc2ccc(F)cc2)cc(OC)c1
95.5% (inactive)

Okay, next one:
Data point: COc1cc(NC(=O)c2cncnc2Nc2ccc3c(ccn3Cc3ccccn3)c2)cc(OC)c1 ; growth = 15.6% (inactive)

---

Test system: MDA-MB-468 breast
assay_overview: NCI-60 one-dose screen, 48 h
condition_details: 10 µM unless noted
Description: Growth inhibition of the MDA-MB-468 human Breast tumor cell line is measured as a screen for anti-cancer activity. Cells are grown in 96 well plates and exposed to the test compound for 48 hours. Compounds are tested at a single concentration, which is 10^-5 M for most compounds. The reported endpoint is percent growth (GI% or GIPRCNT), where numbers from 0 - 100% represent growth inhibition, and numbers from -100% - 0 represent cell death. […]
Compounds without any hit were thinned out: in the full panel of roughly 83,000, 20% have a hit. Calls of active or inactive are those of the source. Rule for the calls: active = growth percent below 10; inactive = the rest.
Select the matching outcome among Y for active, N for inactive

Here are 2 compounds together with their reported answers.
CC(=O)CSc1ncnc2nc[nH]c12
N
O=C1/C(=C/c2ccc(Cl)cc2)CN(Cc2cn(CCCNc3ccnc4cc(Cl)ccc34)nn2)C/C1=C\c1ccc(Cl)cc1
Y

Turning now to a further record.
Please let me know the test result on file for COc1cc(/C=C/c2cc(/C=C/c3ccc(O)c(OC)c3)n(C(=O)Nc3ccc(C)cc3C)n2)ccc1O .
Y

---

Test system: MDA-MB-468 breast
assay_overview: NCI-60 one-dose screen, 48 h (100 = growth as untreated, 0 = no growth, -100 = all killed)
condition_details: 10 µM unless noted
Compounds without any hit were thinned out: in the full panel of roughly 83,000, 20% have a hit.
In this section we review reported growth values for a set of compounds.
Just the number in %, nothing appended.

For orientation, consider the following solved cases.
Nc1ncnc2c1c(C(F)(F)F)cn2[C@@H]1O[C@H](CO)[C@@H](O)[C@H]1O
-41.1
N=C(N)c1ccc(-c2ccc(-c3cccs3)s2)s1
-90.3
CCCCCCCOc1c(OC)cc(C2CC(=O)Nc3c2c(C)nn3-c2nc3ccccc3[nH]2)cc1OC (stereo not given)
-4.43

Per the records, this compound ( Cc1[nH]c(=O)[nH]c(=O)c1CCSSCCc1c(C)[nH]c(=O)[nH]c1=O ) has growth equal to 105

The compound listed as Oc1ccc(Cn2cc3c(c2-c2ccccc2)CCc2cnoc2-3)cc1 has a reported growth of 89.2

O=C1/C(=C/c2ccc(Cl)cc2)CCC/C1=C\c1ccc(Cl)cc1 yielded growth of 67.9

growth for COc1cc(-c2nn(C(C)(C)C)cc2-c2ccnc(NCCCNS(=O)(=O)c3ccc(F)cc3)n2)ccc1Cl is 72.9

Consider COc1ccc(Oc2nc(Nc3ccc(N4CCOCC4)cc3)ncc2NC(=O)Nc2cc(OC)cc(OC)c2)cc1 . Its measured growth is 25.3

growth measured on C/C=C/CC(C)C(O)C1C(=O)NC(CC)C(=O)N(C)CC(=O)N(C)C(CC(C)C)C(=O)NC(C(C)C)C(=O)N(C)C(CC(C)C)C(=O)NC(C)C(=O)NC(C)C(=O)N(C)C(CC(C)C)C(=O)N(C)C(CC(C)C)C(=O)N(C)C(C(C)C)C(=O)N1C (stereo not given) = 4.57

The value of growth measured for the compound CCOC(=N)c1ccc(C(=N)OCC)cc1 turned out to be 106

Value of growth reported for the compound CC[C@@H](C)[C@H](NC(=O)Cn1cc(CNC(=O)[C@@H](NC(=O)OCc2ccccc2)C(C)C)nn1)C(=O)O is 98.5

# compound CCN1Cc2c(/C=C/c3ccccc3)nc3ccc(OC)cc3c2N(c2cccc(Cl)c2)C1 ; its growth = 48.3

Form field growth, entry COc1cc2c(=O)n(CCCN(C)C)c3c4cc[nH]c4ncc3c2cc1OC : 81.5

The compound listed as Cc1cccc(-n2c(C)nc3ccc(NC(=O)NCCCl)cc3c2=O)c1 shows growth equal to 92.7

Recorded growth (compound Cc1cc(O)c(C2=NN(c3ccc(S(N)(=O)=O)cc3)C(/C=C/c3ccccc3)C2)cc1Cl (stereo not given) ): 43.3

Data provenance is PubChem BioAssay (NCI).
